# assay procedure: yeast display, Sf9 membrane polyspecificity reagent, FACS + sequencing; frameworks hold sequencing errors
experimental readout: polyreactivity (PSR sort gate)

sequence entry	value measured
QVQLVESGGGLVQAGGSLRLSCDASGGTFVHNAMGWYRQAPGKERELVAAISWSGGSTYYADSVKGRFTISRDNATNTVYLQMNSLKPEDTAVNYCAADLPDYKDIFDSWGQGTQVTLSS	low polyreactivity
QVQLVESGGGLVQAGGSLRLSCAASGSTLVSYAMGWYRQSPGKERELVATISWRGGSTYYADSVKGRFTISRDNAKNTVYLQMNSLKPEDTAVYYCAADLWHSQYYYGYEYWGQGTQVTVSS	low polyreactivity
QVQLVESGGGLVQAGGSLRLSCAASGNIFSSNDMGWYRQAPGKQRELVAANTRSGGSTYYADSVKGRFTISRDNAKNTLYIQMNSHTPEDTAVYDGAGRPYPRNSWGYDDWGQGTQVTVSS	high polyreactivity
QVQLVESGGGLVQAGGSLRLSCAASGIIFPYYSMGWYRQAPGKERELVAAITSSGGSTYYADSVKGRFTISRDNAKNTVYLQMNSLKPEDTAVYYCAAQTWGHGGDSWGQGTQVTVSS	high polyreactivity
QVQLVESGGGLVQAGGSLRLSCAASGYIFITYAMGWYRQAPGKERELVAAISRRGGRTYYADSVKGRFTISRDNAKNTVYLQMNSLKPEDTAVYYCAADPATSVYGGLNYWGQGTQVTVSS	high polyreactivity
QVQLVESGGGLVQAGGSLRLSCAASGFIFAVNAMGWYRPAPGKERELVAAISRSGGTTYYADSVKGRFTISRDNAKNTVYLQMNSLKPEDTAVYYCARSSGLRSWRSSDYWGQGTQVTVSS	high polyreactivity
QVQLVESGGGLVQAGGSLRLSCSASGRTFYGNAMGWYRQAPGKERELVAAISWSGGSTYYADSVKGRFPISRDNAKNTVYLQMISLKPEYTAVYYCNADYFAWDLMYYWGQGTQVTVSS	low polyreactivity
QVQLVESGGGLVQAGGSLRLSCAASGSTFYRNAMGWYRQAPGKERELVAVISISDGSTYADSVKGRFTISRDNAKNTVYLQMNSLKPEDTAVYYCAKVLNPLDYYDFDYWGQGTQVTVSS	low polyreactivity
QVQLVESGGGLVQAGGSLRLSCAASGSIFEFNAMGWYRQAPGKERELVAAITWGGGSTYYADSVKGRFTISRDNAKNTVYLQMNSLKPEDTAVYYCNAAYGRYRYDYWGQGTQVTVSS	low polyreactivity
QVQLVESGGGLVQAGGSLRLTCAASGRTLRLYPMGWYRQAPGKERELVAAISRSGSSTYADSVKGRFTISRDNAKNTVYLQMYSLKPEDTAVYYCNAYQPRYGYWGQGTQVTVSS	high polyreactivity
QVQLVESGGGLVQAGGSLRLSCAASGSTFSANTMGWYRQAPGKERELVAAISSSGVGTRYADSVKGRFTISRDNAKNTVYLQMNSLKPEDTAVYYCNADLYGGGDKSVISGLNGEYEYWGQGTQVTVSS	low polyreactivity
QVQLVESGGGLVQAGGSLRLSCAASGSIFPVYTMGWYRQAPGKEREFVATITISGAITYYADSVKGRFTISRDNAKNSVYLQMNSLKPEDTAVYYCNTGPISYPANDYWGQGTQVTVSS	low polyreactivity
QVQLVESGGGLVQAGGSLRLSCAASGFTIAYNAMGWYRQAPGKERDLVAAISSSGGRTYYADSVKGRFTISRDNAKNTVYFQMNSLKPEDTAVYYCATRPKVAYEYVYWGQGTQVTVSS	high polyreactivity
QVQLVESGGGLVHAGGILSLSSAASGFTIGYYSMGWYRQAPGKERELVAAINWSGGRTYYGDSVKGRFTISRDIAKNTVYFQMTSLKPEDTAVYYCAADPNKGRQMYYWGQGSQVTVSS	high polyreactivity
QVQLVESGGGLVQAGGSLRLSCAASGFIFDWYAMGWYRQAPGKERELVAAITRSGGNTYYADSVKGRFTISRDNAKNTVYLQMNSLKPEDTAVYYCNAVAAVYAYGHDYWGQGTQVTVSS	high polyreactivity
QVQLVESGGGLVQSGGSLRLSCAASGRTFSKNAMGWYRQAPGKERELVAAISGSGGSTYYADSVKGRFTISRDNAKNTVYLQMNSLKPEDTAVYYCADRYTVRRSGYWGQGTQVTVSS	high polyreactivity
QVQLVESGGGLVQAGGSLRLSCAASGRTFGRYALGWDRQAPGKDRELVAAISYSTDSTYYADSVKGRFTISRDNAKNTVYLQMNSLKPEDTAVYYCATDSVNVGSYVGDKHDYWGQGTQVTLSS	low polyreactivity
QVHLVESGGGLVQAGGSLRLSCPASGRIFDWYAMGCYRQAPGKEREFVAVIDSSGGTYYADSVKGRFTISRDNAKNTVYLQMNSLKPEDTAVYYCAAEYGWWSFPEYDYWGQGTQVTVSS	low polyreactivity
QVQLVESGGGLVQAGGSLRLSCAASGRIFDVYAMGWYRQAPGKERELVAAITGSGGSTYYADSVKGRFTISRDNAKNTVYLQMNSLKPEDTAVYYCNAVGIWFPIRLIVPYDYWGQGTQVTVSS	low polyreactivity
QVQLVESGGGLVQAGGSLRLSCAASGFTFDRYAMGWYRQAPGKERELVAAISRSGASTYYADSVKGRFTISRDNAKNTVYLQMNSLKPEDTAVDDCAAKQRTKGDYWGQGTQVTVSS	high polyreactivity
QVQLVESGGGLVQAGGSLRISCAASGSIFWRYVMGWYRPAPGKERELIAAISSGGGITYYADSVKGRFTISRDNAKNTVYLQMNSLKPEDTAVYYCAARTYRGQYYTGFGFGYWGQGSQVTVSS	high polyreactivity
